- SYSTEM_NAME: human V1a receptor (Homo sapiens, UniProt P37288)
- Construct: expressed in transfected cells; host or cells: CHO K1 (ATCC), also stably transfected with a modified aequorin
- Sequence (P37288 whole entry): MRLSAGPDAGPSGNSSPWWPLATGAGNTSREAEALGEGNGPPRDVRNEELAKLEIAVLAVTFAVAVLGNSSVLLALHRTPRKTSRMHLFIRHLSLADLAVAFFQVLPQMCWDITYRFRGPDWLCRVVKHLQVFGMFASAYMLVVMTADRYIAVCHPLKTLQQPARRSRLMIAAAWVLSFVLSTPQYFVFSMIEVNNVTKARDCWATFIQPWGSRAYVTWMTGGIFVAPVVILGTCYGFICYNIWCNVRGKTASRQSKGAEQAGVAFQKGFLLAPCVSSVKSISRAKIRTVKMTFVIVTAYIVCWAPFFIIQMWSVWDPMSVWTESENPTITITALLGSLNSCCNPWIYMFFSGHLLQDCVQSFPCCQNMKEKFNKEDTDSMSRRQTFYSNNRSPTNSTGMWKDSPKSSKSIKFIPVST
- ASSAY_COMMENT: Cellular in vitro assay for determining vasopressin receptor activity, V1a receptor cell line (CHO, aequorin luminescence)
- Type: cell-based
- CONDITION_INFO: selectivity ratio IC50 hV2 / IC50 hV1a
Flag rule - ratio IC50 hV2/hV1a less than 70 flags YES; the remaining entries get NO.

[[record]]
compound = "O=C(N[C@@H]1C[C@@H]1F)c1cccc(C(F)(F)F)c1-n1cnc(Cn2nc(-c3ccc(Cl)cc3)n(C[C@H](O)C(F)(F)F)c2=O)n1 (racemic) [Example 413]"
category = "YES"

[[record]]
compound = "O=C(NC1CCCCC1)c1ccccc1-n1cnc(Cn2nc(-c3ccc(Cl)cc3)n(C[C@H](O)C(F)(F)F)c2=O)n1 [Example 354]"
category = "YES"

[[record]]
compound = "CC1CC(=O)NC1C(=O)Nc1ncccc1-n1cnc(Cn2nc(-c3ccc(Cl)cc3)n(C[C@H](O)C(F)(F)F)c2=O)n1 (stereo partly drawn) [Example 99]"
category = "NO"

[[record]]
compound = "O=C(Nc1ncccc1-n1cnc(Cn2nc(-c3ccc(Cl)cc3)n(C[C@H](O)C(F)(F)F)c2=O)n1)C1CCC1 [Example 115]"
category = "YES"

[[record]]
compound = "NC(=O)C1CN(C(=O)c2ccccc2-n2cnc(Cn3nc(-c4ccc(Cl)cc4)n(C[C@H](O)C(F)(F)F)c3=O)n2)C1 [Example 189]"
category = "YES"

[[record]]
compound = "O=C(c1ncccc1-n1cnc(Cn2nc(-c3ccc(Cl)cc3)n(C[C@@H](O)C(F)(F)F)c2=O)n1)N1CCC(F)(F)C1 [Example 463]"
category = "NO"


Value source: patent US11173151B2
